target.entity: T1, cynomolgus monkey BCMA (cynomolgus monkey, UniProt A0A2K5UD97 1-53)
T1 construct: Soluble analyte in SPR; construct not described; also called cyBCMA; Cyno BCMA
method.description: SPR, IgG on chip, cyBCMA analyte
Assignment: determine reported kon for the given binders.
Answers are plain numbers, in M⁻¹ s⁻¹.

Here's what some known entries look like.
[
  {
    "binder": "C01_Rd4_0.6nM_C16 (antibody, V domains shown, IgG) VH: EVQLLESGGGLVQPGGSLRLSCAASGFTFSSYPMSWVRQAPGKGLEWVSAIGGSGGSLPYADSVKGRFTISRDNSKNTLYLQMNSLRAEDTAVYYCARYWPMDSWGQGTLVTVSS VL: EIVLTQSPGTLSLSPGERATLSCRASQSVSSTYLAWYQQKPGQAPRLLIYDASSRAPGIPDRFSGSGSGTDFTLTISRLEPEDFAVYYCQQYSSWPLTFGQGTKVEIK",
    "property": "kon",
    "unit.symbol": "M⁻¹ s⁻¹",
    "value.reported": "4.95e+06"
  },
  {
    "binder": "C01_Rd4_6nM_C26 (antibody, V domains shown, IgG) VH: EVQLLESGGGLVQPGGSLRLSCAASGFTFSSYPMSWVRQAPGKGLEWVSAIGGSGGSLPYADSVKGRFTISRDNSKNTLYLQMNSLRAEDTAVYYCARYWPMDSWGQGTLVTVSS VL: EIVLTQSPGTLSLSPGERATLSCRASQSVSALYLAWYQQKPGQAPRLLIYDASSRAPGIPDRFSGSGSGTDFTLTISRLEPEDFAVYYCQQYSAWPLTFGQGTKVEIK",
    "property": "kon",
    "unit.symbol": "M⁻¹ s⁻¹",
    "value.reported": "4.75e+06"
  },
  {
    "binder": "A02_Rd4_0.6nM_C13 (antibody, V domains shown, IgG) VH: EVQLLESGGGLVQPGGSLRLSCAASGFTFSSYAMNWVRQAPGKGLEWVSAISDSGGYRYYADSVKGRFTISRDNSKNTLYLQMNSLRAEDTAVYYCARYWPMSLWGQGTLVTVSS VL: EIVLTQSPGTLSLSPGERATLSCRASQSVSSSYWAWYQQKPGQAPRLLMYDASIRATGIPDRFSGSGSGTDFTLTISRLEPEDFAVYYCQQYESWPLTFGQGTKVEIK",
    "property": "kon",
    "unit.symbol": "M⁻¹ s⁻¹",
    "value.reported": "2.29e+06"
  },
  {
    "binder": "P5C1_VHVL (antibody, V domains shown, IgG; also called PC1) VH: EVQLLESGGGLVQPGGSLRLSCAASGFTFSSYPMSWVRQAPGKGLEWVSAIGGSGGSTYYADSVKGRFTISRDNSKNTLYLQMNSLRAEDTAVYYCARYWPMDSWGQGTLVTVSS VL: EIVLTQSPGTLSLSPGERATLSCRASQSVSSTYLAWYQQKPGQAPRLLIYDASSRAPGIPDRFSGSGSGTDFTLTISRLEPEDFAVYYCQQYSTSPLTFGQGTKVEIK",
    "property": "kon",
    "unit.symbol": "M⁻¹ s⁻¹",
    "value.reported": "3.53e+06"
  }
]

Field: next binder
Q: Report kon, nothing else, for this binder: COMBO_Rd4_0.6nM_C14 (antibody, V domains shown, IgG) VH: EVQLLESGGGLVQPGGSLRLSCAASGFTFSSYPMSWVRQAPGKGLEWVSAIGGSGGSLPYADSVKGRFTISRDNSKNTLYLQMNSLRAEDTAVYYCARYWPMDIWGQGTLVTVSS VL: EIVLTQSPGTLSLSPGERATLSCRASQSVSALYLAWYQQKPGQAPRLLMYDASIRATGIPDRFSGSGSGTDFTLTISRLEPEDFAVYYCQQYYGWPLTFGQGTKVEIK
Result: 3.48e+06
